- TESTED ON: hNLRP3 inflammasome (Homo sapiens, UniProt Q96P20)
- Construct: endogenous in cells; host or cells: THP-1 cells, PMA-differentiated
- Sequence (Q96P20 whole entry): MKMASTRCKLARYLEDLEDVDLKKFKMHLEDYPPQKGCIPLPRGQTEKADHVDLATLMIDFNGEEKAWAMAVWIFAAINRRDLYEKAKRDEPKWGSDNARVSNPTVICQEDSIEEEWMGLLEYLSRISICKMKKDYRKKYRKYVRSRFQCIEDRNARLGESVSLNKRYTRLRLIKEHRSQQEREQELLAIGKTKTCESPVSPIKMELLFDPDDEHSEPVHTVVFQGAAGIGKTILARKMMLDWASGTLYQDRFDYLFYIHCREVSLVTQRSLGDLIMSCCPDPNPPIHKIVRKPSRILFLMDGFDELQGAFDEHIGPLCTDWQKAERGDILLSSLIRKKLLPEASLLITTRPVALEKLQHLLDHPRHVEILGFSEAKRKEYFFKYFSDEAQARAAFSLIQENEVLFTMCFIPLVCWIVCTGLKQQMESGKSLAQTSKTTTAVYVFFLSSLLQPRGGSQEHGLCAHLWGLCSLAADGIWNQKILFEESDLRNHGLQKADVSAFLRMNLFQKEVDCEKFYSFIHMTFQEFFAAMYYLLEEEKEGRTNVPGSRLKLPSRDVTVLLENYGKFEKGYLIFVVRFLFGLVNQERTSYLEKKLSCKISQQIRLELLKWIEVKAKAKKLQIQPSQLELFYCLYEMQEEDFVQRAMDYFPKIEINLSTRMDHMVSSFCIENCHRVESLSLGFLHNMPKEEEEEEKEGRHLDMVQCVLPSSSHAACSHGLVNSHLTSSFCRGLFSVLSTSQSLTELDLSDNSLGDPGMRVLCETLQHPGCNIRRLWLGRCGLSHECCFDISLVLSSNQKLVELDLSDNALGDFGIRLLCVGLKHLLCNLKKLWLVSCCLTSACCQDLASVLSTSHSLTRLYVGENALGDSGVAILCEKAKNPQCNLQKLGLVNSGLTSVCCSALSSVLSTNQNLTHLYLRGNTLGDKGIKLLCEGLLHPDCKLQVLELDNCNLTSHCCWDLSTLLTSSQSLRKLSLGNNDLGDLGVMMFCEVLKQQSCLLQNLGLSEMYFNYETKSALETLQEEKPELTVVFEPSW
- ASSAY INFO: Agonistic effect on the expression of IL-1β in THP-1 cells after PMA-induced differentiation (HTRF)
- Assay type: cell-based
- MEASUREMENT PARAMETERS: IL-1β level, PMA-differentiated THP-1 cells, 6 hours
METRIC NAME: EC50 (µM)

- Nc1cc(N2CCC(O)CC2)c2sc(-c3ccn[nH]3)cc2n1 [Compound 172]: 0.03
- C[C@H](O)CNc1cc(N)nc2cc(-c3ccn[nH]3)sc12 [Compound 33]: 0.26
- C[C@@H](CCO)Nc1cc(N)nc2cc(-c3ccn[nH]3)sc12 [Compound 125]: 0.03
- Nc1cc(N2CCNCC2)c2sc(-c3ccn[nH]3)cc2n1 [Compound 175]: 0.34
- Cn1cc(-c2cc3nc(N)cc(NCCCO)c3s2)cn1 [Compound 109]: 4.48
- C[C@H]1CN(c2cc(N)nc3cc(-c4ccn[nH]4)sc23)C[C@H](C)O1 [Compound 168]: 0.01
- CN(CCCNc1cc(N)nc2cc(-c3ccn[nH]3)sc12)C(=O)C1CC1 [Compound 76]: 0.27

[P] Nc1cc(N[C@H]2CC[C@H](O)C2)c2sc(-c3ccn[nH]3)cc2n1 [Compound 26]
[Q] CC[C@@H](CO)Nc1cc(N)nc2cc(-c3ccn[nH]3)sc12 [Compound 132]
Compare the recorded EC50 of P and Q ; state which is larger. Returns: label corresponding to the selected item.
Q
